Target: T1, FITC labeled BCMA (acrobiosystem, Cat. No. BCA-HF254) (UniProt Q02223 1-54, FITC labeled (site not stated))
T1 construct: Soluble labeled protein used to stain CAR-T cells; also called BCMA antigen protein; BCMA protein
T1 sequence (looked up): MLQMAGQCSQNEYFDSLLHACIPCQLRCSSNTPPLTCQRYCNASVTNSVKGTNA
Experiment: flow cytometry, CAR-T cells stained with FITC labeled BCMA
assay-metric: binding result

{"binder": "chimeric antigen receptor comprising humanized anti-BCMA single domain antibody BH60_V1, on CAR-T cells (other) QVQLVESGGGLVQPGGSLRLSCAVSGGIFTINDMAWFRQAPGKQRELVAHISRSGSTYYRDSVKGRFTISRDNSKNTLYLQMNSLRAEDTATYYCNSIDRPLSYGQGTLVTVSTTTPAPRPPTPAPTIASQPLSLRPEACRPAAGGAVHTRGLDFACDIYIWAPLAGTCGVLLLSLVITLYCKRGRKKLLYIFKQPFMRPVQTTQEEDGCSCRFPEEEEGGCELRVKFSRSADAPAYQQGQNQLYNELNLGRREEYDVLDKRRGRDPEMGGKPRRKNPQEGLYNELQKDKMAEAYSEIGMKGERRRGKGHDGLYQGLSTATKDTYDALHMQALPPR", "measured-value": "binds"}
{"binder": "chimeric antigen receptor comprising humanized anti-BCMA single domain antibody BH60_V3, on CAR-T cells (other) EVQLVESGGGLVQPGGSLRLSCVVSGGIFTINDMAWVRQAPGKGLEWVAHISRSGSTYYRDSVKGRFTISRDNAKNSLYLQMNSLRAEDTAVYYCNSIDRPLSYGQGTLVTVSSTTTPAPRPPTPAPTIASQPLSLRPEACRPAAGGAVHTRGLDFACDIYIWAPLAGTCGVLLLSLVITLYCKRGRKKLLYIFKQPFMRPVQTTQEEDGCSCRFPEEEEGGCELRVKFSRSADAPAYQQGQNQLYNELNLGRREEYDVLDKRRGRDPEMGGKPRRKNPQEGLYNELQKDKMAEAYSEIGMKGERRRGKGHDGLYQGLSTATKDTYDALHMQALPPR", "measured-value": "binds"}
